- Study system: T1, rGyr_fl Y851F (full-length reverse gyrase) (Thermotoga maritima, UniProt O51934 1-1104, Y851F)
- T1 sequence: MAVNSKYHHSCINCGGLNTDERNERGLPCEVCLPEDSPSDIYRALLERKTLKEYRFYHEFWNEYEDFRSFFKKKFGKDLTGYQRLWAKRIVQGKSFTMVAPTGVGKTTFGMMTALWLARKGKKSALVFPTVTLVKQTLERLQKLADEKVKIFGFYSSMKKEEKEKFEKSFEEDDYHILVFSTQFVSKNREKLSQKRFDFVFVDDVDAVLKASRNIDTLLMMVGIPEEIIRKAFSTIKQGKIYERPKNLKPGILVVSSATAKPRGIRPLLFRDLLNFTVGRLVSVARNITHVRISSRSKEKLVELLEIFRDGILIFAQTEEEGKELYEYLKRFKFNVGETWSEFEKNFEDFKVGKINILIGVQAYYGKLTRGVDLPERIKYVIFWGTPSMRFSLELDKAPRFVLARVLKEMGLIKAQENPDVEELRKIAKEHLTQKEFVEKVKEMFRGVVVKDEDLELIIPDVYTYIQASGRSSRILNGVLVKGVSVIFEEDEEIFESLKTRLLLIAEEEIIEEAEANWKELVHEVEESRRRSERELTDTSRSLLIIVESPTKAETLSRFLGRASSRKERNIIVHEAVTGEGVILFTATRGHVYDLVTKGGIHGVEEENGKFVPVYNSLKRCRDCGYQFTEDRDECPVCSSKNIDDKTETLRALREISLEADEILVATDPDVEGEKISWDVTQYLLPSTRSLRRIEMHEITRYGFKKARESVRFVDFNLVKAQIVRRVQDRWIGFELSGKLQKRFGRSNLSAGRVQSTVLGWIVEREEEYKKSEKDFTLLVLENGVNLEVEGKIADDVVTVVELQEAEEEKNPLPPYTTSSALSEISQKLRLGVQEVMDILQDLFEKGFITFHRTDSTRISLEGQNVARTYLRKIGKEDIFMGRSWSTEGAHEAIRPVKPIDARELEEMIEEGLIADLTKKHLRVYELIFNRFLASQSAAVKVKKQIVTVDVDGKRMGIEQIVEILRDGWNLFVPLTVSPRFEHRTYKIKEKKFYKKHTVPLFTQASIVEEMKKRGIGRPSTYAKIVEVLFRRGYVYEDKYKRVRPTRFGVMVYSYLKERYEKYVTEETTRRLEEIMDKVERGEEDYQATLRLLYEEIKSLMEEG
- Procedure summary: fluorescence anisotropy
Reported metric: Kd
Don't forget the unit after the value.

Item 60-base ssDNA (ssDNA) DNA: AAGCCAAGCTTCTAGAGTCAGCCCGTGATATTCATTACTTCTTATCCTAGGATCCCCGTT has what recorded Kd?
39 nM

Source of measurements: paper PMC2566858
